target: 3',5'-cyclic-AMP phosphodiesterase 4B (Homo sapiens, UniProt Q07343); test: Inhibition of recombinant human PDE4B using […] as substrate measured after 90 mins by colorimetric assay
Sequence (Q07343 whole entry): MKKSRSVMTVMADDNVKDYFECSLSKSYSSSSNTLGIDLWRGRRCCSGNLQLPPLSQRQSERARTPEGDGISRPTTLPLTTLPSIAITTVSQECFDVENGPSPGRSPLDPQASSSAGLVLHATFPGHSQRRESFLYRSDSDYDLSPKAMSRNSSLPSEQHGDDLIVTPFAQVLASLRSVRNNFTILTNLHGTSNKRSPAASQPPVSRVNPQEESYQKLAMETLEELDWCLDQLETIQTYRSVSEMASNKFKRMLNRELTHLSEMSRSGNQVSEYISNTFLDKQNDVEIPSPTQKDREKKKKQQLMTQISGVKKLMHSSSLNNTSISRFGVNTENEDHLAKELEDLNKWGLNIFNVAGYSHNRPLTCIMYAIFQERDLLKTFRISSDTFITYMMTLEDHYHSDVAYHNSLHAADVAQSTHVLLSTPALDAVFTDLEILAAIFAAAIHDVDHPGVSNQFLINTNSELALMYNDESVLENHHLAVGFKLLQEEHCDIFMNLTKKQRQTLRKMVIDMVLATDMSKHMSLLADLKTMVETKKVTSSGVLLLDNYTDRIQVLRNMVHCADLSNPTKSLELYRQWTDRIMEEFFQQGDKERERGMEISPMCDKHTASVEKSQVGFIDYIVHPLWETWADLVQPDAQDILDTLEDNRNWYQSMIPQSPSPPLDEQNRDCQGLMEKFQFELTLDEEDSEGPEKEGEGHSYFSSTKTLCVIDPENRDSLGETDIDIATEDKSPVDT
readout.type: IC50

Sample answers from the record:
In [3]: df
Out[3]:
                                  structure  test_result
0  COc1ccc(-c2nc(C)c(C(=O)CSc3nc(N)c(C#N)c(-c4ccc(Cl)cc4)n3)s2)cc1      0.97 µM
1  COc1ccc(-c2nc(SCC(=O)c3sc(-c4ccccc4)nc3C)[nH]c(=O)c2C#N)cc1OC     > 100 µM
2  Cc1nc(-c2ccccc2)sc1C(=O)CSc1nc(N)c(C#N)c(-c2ccc(Cl)cc2)n1      32.3 µM
3  COc1ccc(-c2nc(SCC(=O)c3sc(-c4ccc(Cl)cc4)nc3C)nc(N)c2C#N)cc1      18.1 µM
4  COc1ccc(-c2nc(SCC(=O)c3sc(-c4ccccc4)nc3C)nc(N)c2C#N)cc1      33.1 µM
5  Cc1nc(-c2ccc(Cl)cc2)sc1C(=O)CSc1nc(N)c(C#N)c(-c2ccccc2)n1      22.1 µM
6  Cc1nc(-c2ccc(Cl)cc2)sc1C(=O)CSc1nc(N)c(C#N)c(-c2ccc(Cl)cc2)n1      24.1 µM
7         CC(C)Cn1c(=O)n(C)c(=O)c2[nH]cnc21      14.3 µM

Let's switch to this compound now.
Let me know recorded IC50 for Cc1nc(-c2ccccc2)sc1C(=O)CSc1nc(N)c(C#N)c(-c2ccccc2)n1 , thanks.
> 100 µM
